- TARGET_OR_SYSTEM: T1, HCoV-OC43 spike protein (HCoV-OC43)
- T1 chain: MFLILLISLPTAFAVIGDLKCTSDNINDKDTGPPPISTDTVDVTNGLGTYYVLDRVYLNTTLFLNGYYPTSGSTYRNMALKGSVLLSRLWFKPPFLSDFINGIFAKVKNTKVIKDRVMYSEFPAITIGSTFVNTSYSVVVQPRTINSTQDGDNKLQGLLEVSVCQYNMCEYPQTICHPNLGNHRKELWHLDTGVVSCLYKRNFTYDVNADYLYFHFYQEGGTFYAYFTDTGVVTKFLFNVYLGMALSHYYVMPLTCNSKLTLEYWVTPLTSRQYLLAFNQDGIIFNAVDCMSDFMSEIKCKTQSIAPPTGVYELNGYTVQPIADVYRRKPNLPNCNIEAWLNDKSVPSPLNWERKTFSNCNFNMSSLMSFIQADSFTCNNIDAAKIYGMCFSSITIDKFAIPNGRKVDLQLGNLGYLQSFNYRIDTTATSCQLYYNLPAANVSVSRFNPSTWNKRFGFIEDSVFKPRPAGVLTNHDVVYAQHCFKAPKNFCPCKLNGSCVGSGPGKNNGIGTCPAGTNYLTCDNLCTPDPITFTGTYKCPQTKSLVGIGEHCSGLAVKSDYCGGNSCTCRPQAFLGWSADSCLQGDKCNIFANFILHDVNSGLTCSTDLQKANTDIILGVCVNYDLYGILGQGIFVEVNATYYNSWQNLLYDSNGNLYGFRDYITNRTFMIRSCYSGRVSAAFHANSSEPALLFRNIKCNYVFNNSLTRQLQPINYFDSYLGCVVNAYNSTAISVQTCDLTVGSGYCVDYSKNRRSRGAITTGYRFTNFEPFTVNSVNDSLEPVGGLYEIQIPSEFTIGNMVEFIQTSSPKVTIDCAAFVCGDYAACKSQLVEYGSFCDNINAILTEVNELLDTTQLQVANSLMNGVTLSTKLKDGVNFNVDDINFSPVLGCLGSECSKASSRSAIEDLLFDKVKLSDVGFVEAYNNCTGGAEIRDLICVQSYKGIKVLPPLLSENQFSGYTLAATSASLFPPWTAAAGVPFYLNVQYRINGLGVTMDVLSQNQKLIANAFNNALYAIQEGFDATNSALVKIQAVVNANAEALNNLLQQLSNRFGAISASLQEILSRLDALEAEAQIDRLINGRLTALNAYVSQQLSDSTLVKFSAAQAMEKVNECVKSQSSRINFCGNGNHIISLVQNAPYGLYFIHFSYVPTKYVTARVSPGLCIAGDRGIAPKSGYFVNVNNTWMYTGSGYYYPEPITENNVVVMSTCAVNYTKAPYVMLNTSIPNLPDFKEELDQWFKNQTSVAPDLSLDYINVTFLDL
- PROTOCOL_SUMMARY: ELISA
So I've got a bunch of binders here, and I need their EC50 values.
Answers are plain numbers, in nM.

Here is how some binders turned out for EC50.
1-B11-A (antibody, V domains shown) VH: QVQLQQSGPELVKPGASVKISCKASGYTFTDHYINWVKQRPGQGLEWIGWIFPGSGSTYYNEQFKGKATLTVDKSSNTAYMLLSSLTSEDSAVYFCARSGGLRLGFAYWGQGTLVTVSA VL: DIQMTQTTSSLSASLGDRVTISCRASQDISNYLNWYQQKPDGTVKLLIYYTSRLHSGVPSRFSGSGSGTDYSLTISNLEQEDISTYFCQQVNTLPYTFGGGTKLEIK ... 0.57
8-A17-A (antibody, V domains shown) VH: QVQLKESGPGLVAPSQSLSITCTVSGFSLTSYAISWVRQPPGKGLEWLGVVWPGGGTNYNSALKSRLSINKDNSKSQVFLKMNSLQTDDTGRYYCARTGYHFDYWGQGTTLTVSS VL: QIVLTQSPAIMSASPGEKVTMTCSVSSSVSYMHWYQQKSGTSPKRWIYDTSKLASGVPARFSGSGSGTSYSLTISSMEAEDAATYYCQQWSSNPPMYTFGGGTKLEIK ... 0.05

Please state, for each entry, its recorded EC50.
1. 7-D7-A (antibody, V domains shown) VH: QVQLKESGPGLVAPSQSLSITCTVSGFSLTSYAISWVRQPPGKGLEWLGVIWPGGGTNYNSALKSRLSISKDNSKSQVFLKMNSLQTDDTAKYYCARTGYYFDYWGQGTTLTVSS VL: QLILTQSPAIMSASPGEKVTMTCSASLSVNYMYWFQQKPGTSPKRWIHDTSKLASGVPARFSGSGSGTSYSLTISSMEAEDAATYYCQQWSSNPPMYTFGGGTKLEIK
2. 9-F6-A (antibody, V domains shown) VH: EVQLQQSGPELVKPGASVKMSCKASGYTFTSYIMHWVKQKPGQGLEWIGYILPYNDGTKYNEKFKGKATLTSDKSSSTAYMELRSLTSEDSAVYYCARWGYSNFLDSWGQGTTLTVSS VL: DIQMTQTTSSLSASLGDRVTISCRASQDINNYLNWYQQKPDGTVKLLIYYTSRLHSGVPSRFSGSGSGTDYSLTIRNLEQEDIATYFCQQGNTLPPTFGGGTKLEIK
3. 1-L10-A (antibody, V domains shown) VH: EVKLEESGGGLVQPGGSMKLSCVASGFTFNNYWMNWVRQSPEKGLEWVAQMRLKSDNYATHYAESVKGRFTISRDDSKSSVYLQMNNLRAEDTGIYYCIEGYWTYWGQGTLVTVSA VL: QIVLTQSPAIMSASLGERVTMTCTASSSVSSSYLHWYQQKPGSSPKLWIYSTSNLASGVPARFSGNGSGTSYSLTISSMEAEDAATYYCLQYHRSPPYTFGGGTKLEIK

Result:
0.23
0.05
0.77
